Reported pIC50 is given for each of the following compounds.
Molecular target: HA H1 A/New Caledonia/20/99 (Influenza A virus (A/New Caledonia/20/1999(H1N1)), UniProt Q6WG00)
Test: biochemical
Settings: Competition binding (AlphaLISA), pIC50 H1 A/New Caledonia/20/99
Reminder that pIC50 means the negative base-10 logarithm of the concentration expressed in mol/L.

Take a look at these entries with their results.
>>> val("Cc1nnc(C(c2ccccc2)N2CCN(C(=O)c3cccc(-c4nc5cc(C(F)(F)F)ccc5o4)c3)CC2)o1 (stereo not shown)")
6.90
>>> val("CCc1nnc(C(c2ccccc2)N2CCN(C(=O)c3cccc(-c4nc5cc(C(F)(F)F)ccc5o4)c3)CC2)o1 (stereo not shown)")
6.80
>>> val("Cc1nnc(C(c2ccccc2)N2CCN(C(=O)c3cc(-c4nc5cc(C(F)(F)F)ccc5o4)ccn3)CC2)o1 (stereo not shown)")
7.30

q: I am curious: what pIC50 value has been reported for CCOC(=O)C(c1ccccc1)N1CCN(C(=O)c2cccc(-c3ccc(OC)cc3)c2)CC1 (stereo not shown) ?
a: 6.60

q: I am curious: what pIC50 value has been reported for Cc1nc(C(c2ccccc2)N2CCN(C(=O)c3cccc(-c4nc5cc(C(F)(F)F)ccc5o4)c3)CC2)n[nH]1 (stereo not shown) ?
a: 6.40

q: I am curious: what pIC50 value has been reported for Cc1nnc(C(c2ccccc2)N2CCN(C(=O)c3cccc(-c4nc5cc(Cl)ccc5o4)c3)CC2)o1 (stereo not shown) ?
a: 6.80

q: I am curious: what pIC50 value has been reported for [2H]C([2H])([2H])c1nnc(C(c2ccccc2)N2CCN(C(=O)c3cccc(-c4nc5cc(C(F)(F)F)ccc5o4)c3)CC2)o1 (stereo not shown) ?
a: 6.80

q: I am curious: what pIC50 value has been reported for O=C(c1cc(-c2nc3cc(C(F)(F)F)ccc3o2)ccn1)N1CCN(C(c2ccccc2)c2nnc(C3CC3)o2)CC1 (stereo not shown) ?
a: 7.20

q: I am curious: what pIC50 value has been reported for COC(=O)[C@H](c1ccccc1)N1CCN(C(=O)c2cccc(-c3nc4cc(C(F)(F)F)ccc4o3)c2)[C@@H](C)C1 ?
a: 7.00

q: I am curious: what pIC50 value has been reported for CNC(=O)C(c1ccccc1)N1CCN(C(=O)c2cccc(-c3nc4ccc(OC)cc4s3)c2)CC1 (stereo not shown) ?
a: 6.90

----------
Experiment: in vitro
Conditions: dog, Cytotoxicity (pCC50) MDCK
Reported CC50 is given for each of the following compounds.

Take a look at these entries with their results.
>>> val("COC(=O)C(c1ccccc1)N1CCN(C(=O)c2cccc(-c3ccc(OC)cc3)c2)CC1 (stereo not drawn) [Example 83]")
"39.8 µM"
>>> val("O=C(c1cccc(-c2nc3cc(C(F)(F)F)ccc3o2)c1)N1CCN(C(c2ccccc2)c2nnc(C3CC3)o2)CC1 (stereo not drawn) [Example 127]")
"> 50.1 µM"
>>> val("O=C(c1cccc(-c2nc3cc(C(F)(F)F)ccc3o2)c1)N1CCN(C(c2ccccc2)c2nnc(C3CNC3)o2)CC1 (stereo not drawn) [Example 92]")
"10 µM"
>>> val("Cc1nnc(C(c2ccccc2)N2CCN(C(=O)c3cccc(-c4nc5cccnc5o4)c3)CC2)o1 (stereo not drawn) [Example 129]")
"> 50.1 µM"
>>> val("COC(=O)[C@@H](c1ccccc1)C1CCN(C(=O)c2cccc(-c3nc4ccc(OC)cc4s3)c2)CC1 [Example 65]")
"39.8 µM"

q: I am curious: what CC50 value has been reported for COC(=O)[C@@H](c1ccccc1)N1CCN(C(=O)c2cccc(-c3nc4cc(C(F)(F)F)ccc4o3)c2)[C@H](CC(N)=O)C1 [Example 67] ?
a: 39.8 µM

q: I am curious: what CC50 value has been reported for CNc1ccc2oc(-c3cccc(C(=O)N4CCN(C(C(=O)OC)c5ccccc5)CC4)c3)nc2c1 (stereo not drawn) [Example 9] ?
a: 10 µM

q: I am curious: what CC50 value has been reported for Cc1coc(C(c2ccccc2)N2CCN(C(=O)c3cc(-c4nc5cc(OC(F)(F)F)ccc5o4)ccn3)CC2)n1 (stereo not drawn) [Example 18] ?
a: > 50.1 µM

q: I am curious: what CC50 value has been reported for COC(=O)C(c1ccccc1)N1CCN(C(=O)c2cccc(-c3nc4ccc(OC)cc4o3)c2)CC1 (stereo not drawn) [Example 60] ?
a: 25.1 µM

q: I am curious: what CC50 value has been reported for COC(=O)C(c1ccccc1)N1CCN(C(=O)c2cccc(-c3nc4cc(C(F)(F)F)ccc4o3)c2)CC1 (stereo not drawn) [Example 42] ?
a: > 50.1 µM

----------
Assay: in vitro
Conditions: dog, Cytotoxicity (pCC50) MDCK
MEASUREMENT NAME: CC50 (µM)
Could you give me the number in µM? Just the number is fine.

Take a look at these entries with their results.
>>> val("COC(=O)C(c1ccccn1)C1CCN(C(=O)c2cccc(-c3nc4ccc(OC)cc4s3)c2)CC1 (centres unmarked) [Example 66]")
20
>>> val("Cc1nnc([C@@H](c2ccccc2)N2CCN(C(=O)c3cccc(-c4nc5cccc(C)c5o4)c3)CC2)o1 [Example 77]")
3.98
>>> val("Cc1nnc(C(c2ccccc2)N2CCN(C(=O)c3cc(-c4nc5cc(OC(F)(F)F)ccc5o4)ccn3)CC2)s1 (centres unmarked) [Example 49]")
15.8
>>> val("COC(=O)C(C)(c1ccccc1)N1CCN(C(=O)c2cccc(-c3nc4ccc(OC)cc4s3)c2)CC1 (centres unmarked) [Example 94]")
2.51
>>> val("Cc1nnc(C(c2ccccc2)N2CCN(C(=O)c3cc(-c4nc5cc(OC(F)(F)F)ccc5o4)ccn3)CC2)o1 (centres unmarked) [Example 28]")
15.8
>>> val("COc1ccc2nc(-c3cccc(C(=O)N4CCN(C(c5ccccc5)c5nnn(C)n5)CC4)c3)sc2c1 (centres unmarked) [Example 72]")
50.1

q: I am curious: what CC50 value has been reported for COc1nnc(C(c2ccccc2)N2CCN(C(=O)c3cc(-c4nc5cc(OC(F)(F)F)ccc5o4)ccn3)CC2)o1 (centres unmarked) [Example 21] ?
a: 12.6

q: I am curious: what CC50 value has been reported for Cc1nnc([C@@H](c2ccccc2)N2CCN(C(=O)c3cc(-c4nc5cc(C(F)(F)F)ccc5o4)ccn3)CC2)o1 [Example 17] ?
a: 7.94

----------
Experiment: in vitro
Conditions: dog, Cytotoxicity (pCC50) MDCK
MEASUREMENT NAME: CC50

Take a look at these entries with their results.
>>> val("Cc1nnc(C(c2ccccc2)N2CCN(C(=O)c3cccc(-c4nc5cc(Cl)ccc5o4)c3)CC2)o1 (stereo not shown)")
"25.1 µM"
>>> val("COC(=O)C(c1ccccc1)N1CCN(C(=O)c2cccc(NC(=O)c3ccc(OC)cc3)c2)CC1 (stereo not shown)")
"> 50.1 µM"
>>> val("COc1ccc2nc(-c3cccc(C(=O)N4CCN(C(C(N)=O)c5ccccc5)CC4)c3)sc2c1 (stereo not shown)")
"> 50.1 µM"
>>> val("COC(=O)C(c1ccccc1)N1CCN(C(=O)c2cccc(-c3nc4ncccc4o3)c2)CC1 (stereo not shown)")
"> 50.1 µM"
>>> val("COC(=O)[C@@H](c1ccccc1)N1CCN(C(=O)c2cccc(-c3nc4cc(C(F)(F)F)ccc4o3)c2)CC1")
"> 50.1 µM"
>>> val("O=C(c1cccc(-c2nc3cc(C(F)(F)F)ccc3o2)c1)N1CCN(C(c2ccccc2)c2nnco2)CC1 (stereo not shown)")
"> 50.1 µM"

Pending molecule:
q: I am curious: what CC50 value has been reported for O=C(c1cccc(-c2nc3cc(C(F)(F)F)ccc3o2)c1)N1CCN(C(c2ccccc2)c2nnc(C3(O)CCC3)o2)CC1 (stereo not shown) ?
a: 39.8 µM

----------
Assay: in vitro
Details: dog, Cytotoxicity (pCC50) MDCK
MEASUREMENT NAME: CC50 (µM)
Could you give me the number in µM? Just the number is fine.

Take a look at these entries with their results.
>>> val("COC(=O)[C@@H](c1ccccc1)N1CCN(C(=O)c2cccc(-c3nc4cc(C(F)(F)F)ccc4o3)c2)[C@@H](CC(N)=O)C1")
39.8
>>> val("CNC(=O)N(Cc1ccccc1)C1CCN(C(=O)c2cccc(-c3nc4ccc(OC)cc4s3)c2)CC1")
2
>>> val("COC(=O)C(c1ccccc1)N1CCN(C(=O)c2cccc(-c3nc4cc(NC(C)=O)ccc4o3)c2)CC1 (stereo not drawn)")
31.6

Pending compound:
q: I am curious: what CC50 value has been reported for Cc1nnc([C@@H](c2ccccc2)N2CCN(C(=O)c3cccc(-c4cnc5ccccc5c4)c3)CC2)o1 ?
a: 15.8

----------
System: MDCK cells
Conditions: dog
MEASUREMENT NAME: Cytotoxicity (pCC50) MDCK
Write the number on its own, no unit after it.

>>> val("COc1ccc2nc(-c3cccc(C(=O)N4CCN(C(C(C)=O)c5ccccc5)CC4)c3)sc2c1 (centres unmarked)")
4.4

Pending molecule:
q: I am curious: what Cytotoxicity (pCC50) MDCK value has been reported for Cc1nnc([C@@H](c2ccccc2)N2CCN(C(=O)c3cccc(-c4nc5cc(C(F)(F)F)ccc5o4)c3)CC2)o1 [Example 69] ?
a: 5.0
